test system: NCI-H1703 (Squamous Cell Lung Carcinoma); experiment: combination Emax (second highest fraction inhibited in the dose matrix, 72 h); higher = more inhibition; extreme values may be limits of the assay
RECORDED_METRIC: combination Emax

// returns reported combination Emax for input COc1nnc2ccc(N3CCC(c4ccc(OCCN5CCN(C)C(=O)[C@H]5C)cc4)CC3)nn12 [AZD5153] + Cc1c2c(nn1C)CSCc1cc(n(C)n1)CSc1cc(c3ccccc3c1)OCCCc1c(C(=O)O)n(C)c3c-2c(Cl)ccc13 [AZD5991] (first compound max 1 µM, 7x7, partner max 1 µM)
0.966

// returns reported combination Emax for input Cn1cnc2c(F)c(Nc3ccc(Br)cc3Cl)c(C(=O)NOCCO)cc21 [Selumetinib] + C[C@@H]1COCCN1C2=NC(=NC(=C2)C3(CC3)[S@](=N)(=O)C)C4=C5C=CNC5=NC=C4 [AZD6738] (first compound max 10 µM, 7x7, partner max 10 µM)
0.881

// returns reported combination Emax for input CN(C)CCCOc1ccc(-c2ccc3ncc4c(c3c2)n(C2CCOCC2)c(=O)n4C)cn1 [AZD0156] + C=CCn1c(=O)c2cnc(Nc3ccc(N4CCN(C)CC4)cc3)nc2n1-c1cccc(C(C)(C)O)n1 [AZD1775] (first compound max 1 µM, partner max 1 µM)
0.967

// returns reported combination Emax for input C=CCn1c(=O)c2cnc(Nc3ccc(N4CCN(C)CC4)cc3)nc2n1-c1cccc(C(C)(C)O)n1 [AZD1775] + C[C@@H]1COCCN1C2=NC(=NC(=C2)C3(CC3)[S@](=N)(=O)C)C4=C5C=CNC5=NC=C4 [AZD6738] (first compound max 1 µM, partner max 10 µM)
0.958

// returns reported combination Emax for input CN(CCO)CC[C@H](CSc1ccccc1)Nc1ccc(S(=O)(=O)NC(=O)c2ccc(N3CCC([C@@H](O)c4ccccc4-c4ccc(Cl)cc4)CC3)cc2)cc1S(=O)(=O)C(F)(F)F [AZD4320] + C[C@@H]1COCCN1C2=NC(=NC(=C2)C3(CC3)[S@](=N)(=O)C)C4=C5C=CNC5=NC=C4 [AZD6738] (first compound max 1 µM, 7x7, partner max 10 µM)
0.892

// returns reported combination Emax for input CN(CCO)CC[C@H](CSc1ccccc1)Nc1ccc(S(=O)(=O)NC(=O)c2ccc(N3CCC([C@@H](O)c4ccccc4-c4ccc(Cl)cc4)CC3)cc2)cc1S(=O)(=O)C(F)(F)F [AZD4320] + Nc1ccn([C@@H]2O[C@H](CO)[C@@H](O)C2(F)F)c(=O)n1 [Gemcitabine] (first compound max 1 µM, 7x7, partner max 0.3 µM)
0.915

// returns reported combination Emax for input C[C@@H](Oc1cc(-c2cnn(C3CCNCC3)c2)cnc1N)c1c(Cl)ccc(F)c1Cl [Crizotinib] + CC1=C(C(=CC=C1)Cl)NC(=O)C2=CN=C(S2)NC3=CC(=NC(=N3)C)N4CCN(CC4)CCO [Dasatinib] (first compound max 10 µM, 7x7, partner max 2 µM)
0.799

----------
Could you please report measured Bliss excess for the items listed next?
test system: CESS (Acute Myeloid Leukemia); assay: Bliss excess, mean over the matrix (fraction); higher = more synergy
# answer = number (no unit)

// returns reported Bliss excess for input CN(CCO)CC[C@H](CSc1ccccc1)Nc1ccc(S(=O)(=O)NC(=O)c2ccc(N3CCC([C@@H](O)c4ccccc4-c4ccc(Cl)cc4)CC3)cc2)cc1S(=O)(=O)C(F)(F)F [AZD4320] + Cc1cc2ncnn2cc1Nc1ncc2c(n1)n(C1CCOCC1)c(=O)n2C [AZD7648] (first compound max 1 µM, 7x7, partner max 10 µM)
-0.0106

// returns reported Bliss excess for input COc1cccc2c1C(=O)c1c(O)c3c(c(O)c1C2=O)C[C@@](O)(C(=O)CO)C[C@@H]3O[C@H]1C[C@H](N)[C@H](O)[C@H](C)O1 [Doxorubicin] + Cc1cc2ncnn2cc1Nc1ncc2c(n1)n(C1CCOCC1)c(=O)n2C [AZD7648] (first compound max 1 µM, 7x7, partner max 10 µM)
0.11

----------
Could you please report measured Bliss excess for the items listed next?
tested on: A204 (Rhabdomyosarcoma); assay: Bliss excess, mean over the matrix (fraction); higher = more synergy
# answer = number (no unit)

// returns reported Bliss excess for input CC(=O)c1c(C)c2cnc(Nc3ccc(N4CCNCC4)cn3)nc2n(C2CCCC2)c1=O [Palbociclib] + CC1(C)CCC(CN2CCN(c3ccc(C(=O)NS(=O)(=O)c4ccc(NCC5CCOCC5)c([N+](=O)[O-])c4)c(Oc4cnc5[nH]ccc5c4)c3)CC2)=C(c2ccc(Cl)cc2)C1 [Venetoclax] (first compound max 10 µM, 7x7, partner max 1 µM)
0.0194

// returns reported Bliss excess for input COc1nnc2ccc(N3CCC(c4ccc(OCCN5CCN(C)C(=O)[C@H]5C)cc4)CC3)nn12 [AZD5153] + C=CCn1c(=O)c2cnc(Nc3ccc(N4CCN(C)CC4)cc3)nc2n1-c1cccc(C(C)(C)O)n1 [AZD1775] (first compound max 1 µM, partner max 1 µM)
-0.0887

// returns reported Bliss excess for input NC1(C(=O)N[C@@H](CCO)c2ccc(Cl)cc2)CCN(c2ncnc3[nH]ccc23)CC1 [Capivasertib] + CC(=O)c1c(C)c2cnc(Nc3ccc(N4CCNCC4)cn3)nc2n(C2CCCC2)c1=O [Palbociclib] (first compound max 10 µM, 7x7, partner max 10 µM)
-0.0496

// returns reported Bliss excess for input Cc1c2c(nn1C)CSCc1cc(n(C)n1)CSc1cc(c3ccccc3c1)OCCCc1c(C(=O)O)n(C)c3c-2c(Cl)ccc13 [AZD5991] + C[C@@H]1COCCN1C2=NC(=NC(=C2)C3(CC3)[S@](=N)(=O)C)C4=C5C=CNC5=NC=C4 [AZD6738] (first compound max 1 µM, 7x7, partner max 10 µM)
0.0507

// returns reported Bliss excess for input C[C@@H](c1ccc2nccn2c1)n1nnc2ncc(-c3cnn(C)c3)nc21 [Savolitinib] + Cc1c2c(nn1C)CSCc1cc(n(C)n1)CSc1cc(c3ccccc3c1)OCCCc1c(C(=O)O)n(C)c3c-2c(Cl)ccc13 [AZD5991] (first compound max 1 µM, 7x7, partner max 1 µM)
-0.0502

// returns reported Bliss excess for input Cc1cc2ncnn2cc1Nc1ncc2c(n1)n(C1CCOCC1)c(=O)n2C [AZD7648] + CN(C)CCCOc1ccc(-c2ccc3ncc4c(c3c2)n(C2CCOCC2)c(=O)n4C)cn1 [AZD0156] (first compound max 10 µM, 7x7, partner max 1 µM)
-0.0372

// returns reported Bliss excess for input NC1(C(=O)N[C@@H](CCO)c2ccc(Cl)cc2)CCN(c2ncnc3[nH]ccc23)CC1 [Capivasertib] + CC(C)n1c(=O)n(C)c2cnc3cc(F)c(-c4ccc(OCCCN5CCCCC5)nc4)cc3c21 [AZD1390] (first compound max 10 µM, 7x7, partner max 0.3 µM)
-0.0575

----------
tested on: NCI-H1651 (Lung Adenocarcinoma); assay: combination Emax (second highest fraction inhibited in the dose matrix, 72 h); higher = more inhibition; extreme values may be limits of the assay
RECORDED_METRIC: combination Emax
# answer = number (no unit)

// returns reported combination Emax for input N#Cc1cnc(Nc2cc(NC[C@H]3CNCCO3)c(C(F)(F)F)cn2)cn1 [SRA737] + O=c1[nH]cc(F)c(=O)[nH]1 [5-Fluorouracil] (first compound max 10 µM, 7x7, partner max 20 µM)
0.479

// returns reported combination Emax for input O=C(c1cc(Cc2n[nH]c(=O)c3ccccc23)ccc1F)N1CCN(C(=O)C2CC2)CC1 [Olaparib] + CC1(C)CCC(CN2CCN(c3ccc(C(=O)NS(=O)(=O)c4ccc(NCC5CCOCC5)c([N+](=O)[O-])c4)c(Oc4cnc5[nH]ccc5c4)c3)CC2)=C(c2ccc(Cl)cc2)C1 [Venetoclax] (first compound max 10 µM, 7x7, partner max 1 µM)
0.235

// returns reported combination Emax for input CN(C)CCCOc1ccc(-c2ccc3ncc4c(c3c2)n(C2CCOCC2)c(=O)n4C)cn1 [AZD0156] + CCN(CCO)CCCOc1ccc2c(Nc3cc(CC(=O)Nc4cccc(F)c4)[nH]n3)ncnc2c1 [AZD2811] (first compound max 1 µM, 7x7, partner max 1 µM)
0.107

// returns reported combination Emax for input CC1(C)CCC(CN2CCN(c3ccc(C(=O)NS(=O)(=O)c4ccc(NCC5CCOCC5)c([N+](=O)[O-])c4)c(Oc4cnc5[nH]ccc5c4)c3)CC2)=C(c2ccc(Cl)cc2)C1 [Venetoclax] + COc1cc(Nc2ncc3c(n2)-c2ccc(Cl)cc2C(c2c(F)cccc2OC)=NC3)ccc1C(=O)O [Alisertib] (first compound max 1 µM, 7x7, partner max 10 µM)
0.269

// returns reported combination Emax for input N#Cc1cnc(Nc2cc(NC[C@H]3CNCCO3)c(C(F)(F)F)cn2)cn1 [SRA737] + CCc1c2c(nc3ccc(O)cc13)-c1cc3c(c(=O)n1C2)COC(=O)[C@]3(O)CC [SN-38] (first compound max 10 µM, 7x7, partner max 0.3 µM)
0.835

// returns reported combination Emax for input Cc1c2c(nn1C)CSCc1cc(n(C)n1)CSc1cc(c3ccccc3c1)OCCCc1c(C(=O)O)n(C)c3c-2c(Cl)ccc13 [AZD5991] + CC1(C)CCC(CN2CCN(c3ccc(C(=O)NS(=O)(=O)c4ccc(NCC5CCOCC5)c([N+](=O)[O-])c4)c(Oc4cnc5[nH]ccc5c4)c3)CC2)=C(c2ccc(Cl)cc2)C1 [Venetoclax] (first compound max 1 µM, 7x7, partner max 1 µM)
0.213

// returns reported combination Emax for input C[C@@H](Nc1cc(F)cc(F)c1)c1cc(C(=O)N(C)C)cc2c(=O)cc(N3CCOCC3)oc12 [AZD8186] + CC(=O)c1c(C)c2cnc(Nc3ccc(N4CCNCC4)cn3)nc2n(C2CCCC2)c1=O [Palbociclib] (first compound max 10 µM, 7x7, partner max 10 µM)
0.17
